# IC50 listing for each entry below
molecular target: cathepsin K (Homo sapiens, UniProt P43235); experiment: Inhibitory activity assay against cathepsin K (enzyme assay); assay type: biochemical; conditions: Z-Phe-Arg-AMC 10 μM, enzyme 1 nM, pH 5.5, 30 minutes
Sequence (P43235 115-329, species assumed): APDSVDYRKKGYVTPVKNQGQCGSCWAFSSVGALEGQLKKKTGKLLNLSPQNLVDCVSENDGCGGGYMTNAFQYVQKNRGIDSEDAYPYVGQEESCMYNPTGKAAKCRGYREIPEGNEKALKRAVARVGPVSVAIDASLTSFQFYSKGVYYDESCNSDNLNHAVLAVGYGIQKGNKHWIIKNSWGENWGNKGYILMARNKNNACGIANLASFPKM
measured.metric: IC50 (nM)

>>> measured("N#Cc1nccc(C2(NC(=O)Nc3ccc(-c4ccc(S(=O)(=O)NC5CC5)cc4)cc3)CCCCC2)n1 [Example 148]")
16.8
>>> measured("N#Cc1nccc(C2(NC(=O)OCCc3ccccc3)CCCC2)n1 [Example 4]")
1150
>>> measured("N#Cc1nccc(C2(NC(=O)Nc3ccc(Oc4ccccc4)cc3)CCCC2)n1 [Example 44]")
18.5
>>> measured("Cn1ncc2cc(NC(=O)NC3(c4ccnc(C#N)n4)CCCC3)ccc21 [Example 76]")
573
>>> measured("CS(=O)(=O)Nc1ccc(-c2ccc(NC(=O)NC3(c4ccnc(C#N)n4)CCCCC3)cc2)cc1 [Example 174]")
11.7
>>> measured("Cn1ncc2ccc(-c3ccc(NC(=O)NC4(c5ccnc(C#N)n5)CCCCC4)cc3)cc21 [Example 118]")
16.6
>>> measured("Cc1ccc(C(F)(F)F)cc1NC(=O)NC1(c2ccnc(C#N)n2)CCCCC1 [Example 99]")
3.2
>>> measured("CN(C)CCNC(=O)c1ccc(-c2ccc(NC(=O)NC3(c4ccnc(C#N)n4)CCCCC3)cc2)cc1 [Example 159]")
0.6
>>> measured("COc1ccc(CNC(=O)NC2(c3ccnc(C#N)n3)CCCC2)cc1 [Example 70]")
270
>>> measured("N#Cc1nccc(C2(NC(=O)OCc3ccc(-c4ccc(F)nc4)cc3)CCCC2)n1 [Example 33]")
1620
>>> measured("N#Cc1nccc(C2(NC(=O)Nc3ccc(-c4ccccc4)cc3)CCCCC2)n1 [Example 113]")
12.2
>>> measured("N#Cc1cccc(COC(=O)NC2(c3ccnc(C#N)n3)CCCC2)c1 [Example 9]")
490
>>> measured("Cn1ncc2ccc(-c3ccc(COC(=O)NC4(c5ccnc(C#N)n5)CCCC4)cc3)cc21 [Example 34]")
2040
>>> measured("N#Cc1nccc(C2(NC(=O)OCc3cccc(-c4ccc(F)nc4)c3)CCCC2)n1 [Example 35]")
492
>>> measured("CC(=O)NCc1ccc(-c2ccc(NC(=O)NC3(c4ccnc(C#N)n4)CCCCC3)cc2)cc1 [Example 151]")
2
>>> measured("N#Cc1nccc(C2(NC(=O)NCc3ccccc3)CCCCC2)n1 [Example 88]")
31.6
>>> measured("N#Cc1nccc(C2(NC(=O)Nc3ccc(-c4ccc(F)cc4)cc3)CCCCC2)n1 [Example 121]")
17.2

---

Biological target: cathepsin B (Homo sapiens)
Experiment: Inhibitory activity assay against cathepsin B (enzyme assay)
Format: biochemical
Settings: Z-Arg-Arg-AMC 40 μM, enzyme 1 nM, pH 6.0, 90 minutes
Method: In order to measure the enzyme activity of cathepsin B, a buffer solution (pH 6.0) consisting of 50 mM MES, 5 mM DTT, 2.5 mM EDTA, 0.005% Polysorbate 20, and 10% DMSO was prepared. […] After reacting the mixture of substrate, test material, and enzyme for 90 minutes, the enzyme activity was measured with the EnVision (Perkin Elmer) microplate reader at an absorption wavelength of 340 nm and an emission wavelength of 460 nm. […]
The following compounds are shown together with reported IC50 values.
measured.metric: IC50

>>> measured("CS(=O)(=O)c1ccc(-c2ccc(NC(=O)NC3(c4ccnc(C#N)n4)CCCCC3)cc2C(F)(F)F)cc1C(F)(F)F")
"> 10000 nM"
>>> measured("N#Cc1nccc(C2(NC(=O)NCc3cccc4ccccc34)CCCC2)n1")
"5660 nM"
>>> measured("CC(=O)NCc1ccc(-c2ccc(NC(=O)NC3(c4ccnc(C#N)n4)CCCCC3)cc2)cc1")
"> 10000 nM"
>>> measured("Cc1ccc(C)c(NC(=O)NC2(c3ccnc(C#N)n3)CCC(C)(C)CC2)c1")
"> 10000 nM"
>>> measured("Cc1cccc(COC(=O)NC2(c3ccnc(C#N)n3)CCCCC2)c1")
"> 10000 nM"
>>> measured("CN(C(=O)NC1(c2ccnc(C#N)n2)CCCCC1)c1ccc(F)c(C(F)(F)F)c1")
"> 10000 nM"
>>> measured("CN(C)CCOc1ccc(-c2ccc(NC(=O)NC3(c4ccnc(C#N)n4)CCCCC3)cc2)cc1")
"4800 nM"
>>> measured("N#Cc1nccc(C2(NC(=O)Nc3ccc(-c4ccc(C(=O)NCC5CCCO5)cc4)cc3)CCCCC2)n1 (stereo not shown)")
"5650 nM"
>>> measured("N#Cc1nccc(C2(NC(=O)Nc3ccc(-c4ccc(O)cc4)cc3)CCCCC2)n1")
"> 10000 nM"
>>> measured("CCN1CCN(c2ccc(NC(=O)NC3(c4ccnc(C#N)n4)CCCCC3)cc2)CC1")
"> 10000 nM"
>>> measured("N#Cc1nccc(C2(NC(=O)OCc3cccc(Br)c3)CCCCC2)n1")
"> 10000 nM"
>>> measured("N#Cc1nccc(C2(NC(=O)Nc3ccc(-c4ccccc4C(F)(F)F)c(C(F)(F)F)c3)CCCCC2)n1")
"> 10000 nM"
>>> measured("N#Cc1nccc(C2(NC(=O)Nc3cc(C(F)(F)F)ccc3F)CCCCC2)n1")
"> 10000 nM"
>>> measured("N#Cc1nccc(C2(NC(=O)Nc3ccc(N4CCOCC4)cc3)CCCCC2)n1")
"> 10000 nM"
>>> measured("N#Cc1nccc(C2(NC(=O)Nc3ccc(-c4ccc(CCC(=O)O)cc4)cc3)CCCCC2)n1")
"> 10000 nM"
>>> measured("CC(C)N1CCN(c2ccc(-c3ccc(NC(=O)NC4(c5ccnc(C#N)n5)CCCCC4)cc3)cc2)CC1")
"3210 nM"
